Data provenance is patent US11230581B2.

biological target: HLA-A*02:01 (Homo sapiens, UniProt P04439, D140Y/D185E/D98H/E176V/E277Q/G131W/G231S/I119V/I121R/I166T/I218V/L300P/L318F/N151K/N90K/P208A/P217A/Q86G/Q94H/R138H/R169H/T345S); assay: MHC binding assay (UV-ligand exchange, β2m ELISA, peptide exchange yield); settings: binding of HLA-class I restricted peptides to HLA-A*02:01, UV-ligand exchange
EXPERIMENTAL ENDPOINT: Peptide exchange (MHC class I binding score, peptide exchange yield)

Some solved cases for reference:
SUBSTANCE: 601 (SAFPFPVTV; listed as Homo sapiens) [compound 601]
RECORDED MEASUREMENT: “+++” (≥50 = +++)
//
SUBSTANCE: 68 (SLMELPRGLFL; listed as Homo sapiens) [compound 68]
RECORDED MEASUREMENT: “++++” (≥75% = ++++)
//
SUBSTANCE: 88 (FLLVGDLMAV; listed as Homo sapiens) [compound 88]
RECORDED MEASUREMENT: “+++” (≥50 = +++)
//
SUBSTANCE: 409 (LLDAMNYHL; listed as Homo sapiens) [compound 409]
RECORDED MEASUREMENT: “++” (≥20% = ++)
//
SUBSTANCE: 598 (FLFPHSVLV; listed as Homo sapiens) [compound 598]
RECORDED MEASUREMENT: “+++” (≥50 = +++)
//
SUBSTANCE: 106 (LLYDAVHIVSV; listed as Homo sapiens) [compound 106]
RECORDED MEASUREMENT: “+++” (≥50 = +++)

Give Peptide exchange (MHC class I binding score, peptide exchange yield) for each of the items listed below.
1. 192 (KMLDGASFTL; listed as Homo sapiens) [compound 192]
2. 23 (VLLDDIFAQL; listed as Homo sapiens) [compound 23]
3. 133 (KVLSNIHTV; listed as Homo sapiens) [compound 133]
4. 48 (ALAELYEDEV; listed as Homo sapiens) [compound 48]
5. 527 (FLLEPGNLEV; listed as Homo sapiens) [compound 527]
6. 389 (LLADVTHLL; listed as Homo sapiens) [compound 389]
7. 110 (FLSQVDFEL; listed as Homo sapiens) [compound 110]

“+++” (≥50 = +++)
“+++” (≥50 = +++)
“++” (≥20% = ++)
“+++” (≥50 = +++)
“++++” (≥75% = ++++)
“++” (≥20% = ++)
“+++” (≥50 = +++)

====

target: HLA-A*02:01 (Homo sapiens, UniProt P04439, D140Y/D185E/D98H/E176V/E277Q/G131W/G231S/I119V/I121R/I166T/I218V/L300P/L318F/N151K/N90K/P208A/P217A/Q86G/Q94H/R138H/R169H/T345S); experiment: MHC binding assay (UV-ligand exchange, β2m ELISA, peptide exchange yield); details: binding of HLA-class I restricted peptides to HLA-A*02:01, UV-ligand exchange
EXPERIMENTAL ENDPOINT: Peptide exchange (MHC class I binding score, peptide exchange yield)

SUBSTANCE: 542 (RVWDISTVSSV; listed as Homo sapiens) [compound 542]
RECORDED MEASUREMENT: “+++” (≥50 = +++)
--
SUBSTANCE: 585 (ALWDLAADKQTL; listed as Homo sapiens) [compound 585]
RECORDED MEASUREMENT: “++++” (≥75% = ++++)
--
SUBSTANCE: 354 (LILEGVDTV; listed as Homo sapiens) [compound 354]
RECORDED MEASUREMENT: “++” (≥20% = ++)
--
SUBSTANCE: 13 (YLMDESLNL; listed as Homo sapiens) [compound 13]
RECORDED MEASUREMENT: “+++” (≥50 = +++)
--
SUBSTANCE: 552 (GLLDLPFRVGV; listed as Homo sapiens) [compound 552]
RECORDED MEASUREMENT: “++++” (≥75% = ++++)
--
SUBSTANCE: 356 (KLLGKLPEL; listed as Homo sapiens) [compound 356]
RECORDED MEASUREMENT: “+++” (≥50 = +++)
--
SUBSTANCE: 464 (ALNDCIYSV; listed as Homo sapiens) [compound 464]
RECORDED MEASUREMENT: “+++” (≥50 = +++)
--
SUBSTANCE: 429 (GLVNDLARV; listed as Homo sapiens) [compound 429]
RECORDED MEASUREMENT: “++” (≥20% = ++)

Give Peptide exchange (MHC class I binding score, peptide exchange yield) for each of the items listed below.
1. 59 (IMEDIILTL; listed as Homo sapiens) [compound 59]
2. 55 (SLLDLETLSL; listed as Homo sapiens) [compound 55]
3. 571 (LLLTTIPQI; listed as Homo sapiens) [compound 571]
4. 362 (TLYGLSVLL; listed as Homo sapiens) [compound 362]

“+++” (≥50 = +++)
“++++” (≥75% = ++++)
“+++” (≥50 = +++)
“+++” (≥50 = +++)
